Listing of entries alongside the reported MIC80.
System: C. guilliermondii
Test: MIC80 broth microdilution
Assay type: cell-based, Candida guilliermondii
Conditions: Meyerozyma guilliermondii, 80% growth inhibition, RPMI-1640
Express the result in µg/mL but write the number alone.

Field: example entries. Status: answers known.
# compound, recorded number
records = [
    ("COc1cc2cc3c4cc5c(cc4cc[n+]3c(C)c2cc1OC)OCO5", 4),
    ("COc1cc2cc[n+]3c(C)c4cc5c(cc4cc3c2cc1OC)OCO5", 4),
    ("CCc1c2cc3c(cc2cc2c4cc5c(cc4cc[n+]12)OCO5)OCO3", 2),
    ("COc1ccc2cc3c4cc5c(cc4cc[n+]3cc2c1OC)OCO5", 1),
    ("Cc1c2cc3c(cc2cc2c4cc5c(cc4cc[n+]12)OCO5)OCO3", 0.5),
]

Task: Consider the compound shown here: OC(Cn1cncn1)(Cn1cncn1)c1ccc(F)cc1F [Fluconazole, reference compound] What is its recorded MIC80?
Result: 2

Data credit: patent US9642846B2
